Target or test system: UniProt:Q99572
Sequence (Q99572 1-595): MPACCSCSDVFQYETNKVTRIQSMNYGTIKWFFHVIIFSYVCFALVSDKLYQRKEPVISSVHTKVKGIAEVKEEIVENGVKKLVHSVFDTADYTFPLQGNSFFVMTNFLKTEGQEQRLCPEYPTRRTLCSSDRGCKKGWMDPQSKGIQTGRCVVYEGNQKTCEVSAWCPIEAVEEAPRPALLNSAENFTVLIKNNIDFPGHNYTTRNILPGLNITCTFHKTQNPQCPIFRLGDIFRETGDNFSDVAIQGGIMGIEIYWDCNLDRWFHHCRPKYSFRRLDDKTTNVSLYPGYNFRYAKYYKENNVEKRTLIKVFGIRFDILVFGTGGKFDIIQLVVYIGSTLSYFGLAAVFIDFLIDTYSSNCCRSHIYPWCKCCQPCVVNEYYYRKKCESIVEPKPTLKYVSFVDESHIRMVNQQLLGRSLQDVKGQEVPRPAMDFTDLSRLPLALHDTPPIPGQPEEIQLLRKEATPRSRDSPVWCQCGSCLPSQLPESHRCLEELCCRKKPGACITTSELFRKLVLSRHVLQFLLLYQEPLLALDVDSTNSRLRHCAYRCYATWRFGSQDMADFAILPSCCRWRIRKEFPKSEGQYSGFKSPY
Protocol: P2X7 pKi of Table 1
Type: cell-based
Attribute measured: pKi

[[record]]
molecule = "COC[C@@H](O)COc1cc(NC(=O)C2=CN(C)C(=O)C[C@H]2c2ccc(F)cc2)c(C)cc1Cl [Compound 147]"
target_or_test_system = "UniProt:Q99572"
observed = 5.85

[[record]]
molecule = "Cc1c(NC(=O)C2=CNC(=O)C[C@H]2c2ccc(F)cc2)cc(OCCO)c(F)c1F [Compound 121]"
target_or_test_system = "UniProt:Q99572"
observed = 7.41

[[record]]
molecule = "COc1cc(NC(=O)C2=CNC(=O)C[C@H]2c2ccc(F)cc2)c(Br)cc1F [Compound 109]"
target_or_test_system = "UniProt:Q99572"
observed = 7.15

[[record]]
molecule = "Cc1ccc(NC(=O)C2=CNC(=O)C[C@H]2c2cccc(F)c2)cc1C(C)O (stereo partly shown) [Compound 120]"
target_or_test_system = "UniProt:Q99572"
observed = 6.635

